target: Metabotropic glutamate receptor 8 (Rattus norvegicus) (UniProt P70579); experiment: mGluR8 Gi/Go-coupled signaling modulation – cell-based, rat, thallium flux, HTS, primary screen (AID 488969); settings: HEK293 rat mGluR8, GIRK (G protein-gated inwardly rectifying potassium channel) thallium flux, FluoZin2; at 10 µM; stronger effect = higher value; submaximal glutamate (EC20) added with thallium
Sequence (P70579 whole entry, looked up): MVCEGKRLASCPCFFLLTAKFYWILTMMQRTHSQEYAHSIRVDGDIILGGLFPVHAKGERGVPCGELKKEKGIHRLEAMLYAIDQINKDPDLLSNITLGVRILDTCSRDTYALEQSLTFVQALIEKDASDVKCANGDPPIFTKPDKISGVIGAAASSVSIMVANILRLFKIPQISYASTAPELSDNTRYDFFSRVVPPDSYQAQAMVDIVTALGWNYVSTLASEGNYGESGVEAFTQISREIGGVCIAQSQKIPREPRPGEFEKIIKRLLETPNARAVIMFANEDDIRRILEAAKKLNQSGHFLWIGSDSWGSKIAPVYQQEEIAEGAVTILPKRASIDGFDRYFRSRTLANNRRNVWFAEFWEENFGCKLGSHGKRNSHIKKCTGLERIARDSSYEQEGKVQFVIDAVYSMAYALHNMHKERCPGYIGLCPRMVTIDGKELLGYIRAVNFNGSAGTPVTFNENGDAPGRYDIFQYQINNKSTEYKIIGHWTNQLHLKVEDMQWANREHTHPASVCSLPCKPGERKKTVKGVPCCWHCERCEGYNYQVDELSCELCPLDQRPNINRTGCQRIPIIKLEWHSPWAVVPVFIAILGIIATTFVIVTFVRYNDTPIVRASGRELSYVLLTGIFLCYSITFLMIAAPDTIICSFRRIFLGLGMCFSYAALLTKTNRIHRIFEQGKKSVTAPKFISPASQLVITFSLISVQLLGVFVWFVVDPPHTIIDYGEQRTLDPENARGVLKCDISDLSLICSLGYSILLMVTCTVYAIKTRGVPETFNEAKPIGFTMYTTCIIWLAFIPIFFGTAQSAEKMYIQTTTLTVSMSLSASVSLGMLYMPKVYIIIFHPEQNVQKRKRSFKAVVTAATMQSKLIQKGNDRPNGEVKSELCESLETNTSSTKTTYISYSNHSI
In all, about 110,000 compounds were measured (“z-score”: median about -0.1, highest 2% from about 2 on). Many of the other results were omitted from the sample, so the highest values are more common in it than they were.
readout.name: z-score
Give the figure by itself; no unit, no explanation.

Bench note: what z-score did `COc1ccc(NC(=O)CSc2nnc(Cc3cccn3C)n2-c2ccc(F)cc2)cc1OC` show?
-0.626

Here is the next compound: `Cn1cccc1Cc1nnc(SCC(=O)N2CCN(c3ccccc3)CC2)n1-c1ccc(F)cc1`
-0.223

Here is the next compound: `COc1ccc(CC(=O)N(c2ccccc2)c2nc(C)cs2)cc1`
-0.721

Here is the next compound: `CCOC(=O)c1ccc(NC(=O)CSc2nnc(COc3ccccc3)n2C)cc1`
-0.177

Here is the next compound: `Fc1ccc(NC(=S)NCc2ccccc2Cl)cc1`
1.74

Here is the next compound: `Fc1ccccc1CNC(=S)Nc1ccc(Cl)cc1`
2.23

Here is the next compound: `Cn1c(-c2ccc(-c3ccccc3)cc2)c[nH]c1=S`
4.21

Here is the next compound: `CCCSc1nn2c(=O)c3ccccc3nc2s1`
-0.252

Here is the next compound: CC1(Br)C2CCCC1C2S(=O)(=O)c1ccccc1 (configuration not stated)
-0.376

Here is the next compound: `O=c1cc(NS(=O)(=O)c2ccccc2)nc(SCc2ccc(Cl)cc2)[nH]1`
0.485

Here is the next compound: `CC(C)CCOP(=O)(c1ccccc1)c1ccccc1`
-2.77

Here is the next compound: `Cn1c(-c2ccccc2)cccc1=O`
0.333

Here is the next compound: `C=CCn1c(SCCOC)nc2c1c(=O)[nH]c(=O)n2C`
-0.444

Here is the next compound: `Cn1cccc1Cc1nnc(SCC(=O)Nc2ccc(F)cc2)n1-c1ccc(F)cc1`
-0.84

Here is the next compound: `Clc1ccc2c(N3CCCC3)ccnc2c1`
2.36

Here is the next compound: `Cc1cc([N+](=O)[O-])c(C(C)(C)C)cc1N`
1.32

Here is the next compound: `Cc1ccc(-n2c(Cc3cccn3C)nnc2SCC(=O)NC2CCCCC2)cc1`
0.061

Here is the next compound: `Oc1cnc2ccccc2c1CN1CCOCC1`
-0.0791

Here is the next compound: `CCOC(=O)Cc1csc(NC(=O)CSc2nnc(C(C)C)n2CC)n1`
0.0208

Here is the next compound: `Cn1cccc1Cc1nnc(SCC(=O)NC2CCCC2)n1-c1ccc(F)cc1`
2.33

Here is the next compound: Cc1onc(-c2ccccc2Cl)c1C(=O)NC1CCS(=O)(=O)C1 (configuration not stated)
-0.0472

Here is the next compound: `COc1nc(-c2ccccc2)cc(-c2ccc(OC)c(OC)c2)n1`
-0.612

Here is the next compound: `Cn1ccnc1SCC(=O)Nc1ccccc1`
0.326

Here is the next compound: `Cc1ccc(NC(=O)CSc2nccn2Cc2ccccc2)cc1C`
-0.465

Here is the next compound: `COc1nc(-c2ccccc2)cc(C(F)(F)F)n1`
0.0363

Here is the next compound: `Cn1cccc1Cc1nnc(SCC(=O)N2CCCCCC2)n1-c1ccc(F)cc1`
2.24

Here is the next compound: CC1CCCCC1NC(=O)COn1nnc2ccc(Cl)cc21 (configuration not stated)
-0.171

Here is the next compound: `CC(=O)Nc1ccc(NC(=O)CSc2nccn2Cc2ccccc2)cc1`
2.89

Here is the next compound: `Cn1cccc1Cc1nnc(SCC(=O)N2CCOCC2)n1-c1ccc(F)cc1`
-0.171

Here is the next compound: `S=c1[nH]cc(-c2ccccc2)n1-c1ccccc1Cl`
0.447

Here is the next compound: `S=c1[nH]cc(-c2ccccc2)n1-c1ccccc1`
0.267

Here is the next compound: `O=c1oc2ccccc2cc1-c1csc(NN=C2CCCCC2)n1`
-0.185
